# System: B16F0 melanoma tumour
# measurementDescription: Biodistribution in B16 melanoma bearing mice
# Assay type: in vivo, C57BL/6J mice
# measurementParameters: B16 tumour, C57BL/6J mice, 24 h, mean ± SD, n = 5
# Description: Animal experiments were performed in compliance with the NHMRC Australian Code of Practice for the care and use of animals for scientific purposes. […] Eleven days (B16F0 melanoma) and 25 days (A375 human melanoma) after tumour transplantation, the [^18F]nicotinamides (0.5-1.5 MBq, 100 μl) and [^123I]nicotinamide (0.37-0.74 MBq, 100 μl) derivatives were injected intravenously via the tail vein into mice (15-18 g). […] Selected organs were weighed and their radioactivity measured with a γ-counter. […]
Please provide measured uptake LIVER for the entries that follow.
Answers are plain numbers, in % ID/g.

Consider the following illustrative entries.
{"compound": "O=C(c1cncc(I)c1)N1CCN(Cc2ccccc2)CC1 [[^123I]20]", "subjectOfTest": "B16F0 melanoma tumour", "uptake LIVER / % ID/g": 0.12}
{"compound": "CCCN(CCC)CCCCNC(=O)c1cncc(I)c1 [[^123I]17]", "subjectOfTest": "B16F0 melanoma tumour", "uptake LIVER / % ID/g": 0.15}
{"compound": "CCN(CC)CCNC(=O)c1ccc(I)nc1 [[^123I]14]", "subjectOfTest": "B16F0 melanoma tumour", "uptake LIVER / % ID/g": 0.20}

// moving on: another record for uptake LIVER
Query block: Request - read-out uptake LIVER | tested on B16F0 melanoma tumour | compound CCN(CC)CCNC(=O)c1cncc(I)c1 [[^123I]11]
Result block: 0.12

* * *

Consider the following compounds; for each one, report its uptake LIVER.
# Tested on: B16F0 melanoma tumour
# measurementDescription: Biodistribution in B16 melanoma bearing mice
# Type: in vivo, C57BL/6J mice
# measurementParameters: B16 melanoma bearing mice, 15 min
Please state the value followed by its unit.

# count of solved cases: 3
{"compound": "CCN(CC)CCNC(=O)c1ccc(F)nc1 [[^18F]MEL2]", "reportedMeasurement": "10.148 % ID/g"}
{"compound": "CCN(CC)CCNC(=O)c1ccnc(F)c1 [[^18F]MEL8]", "reportedMeasurement": "12.65 % ID/g"}
{"compound": "CCCCN(C)CCCCNC(=O)c1ccc(F)nc1 [[^18F]MEL4]", "reportedMeasurement": "30.69 % ID/g"}

Shift focus to the following entry.
Query block: Reported uptake LIVER, compound CCN(CC)CCNC(=O)c1cccnc1F [[^18F]MEL6] : ____
Result block: 12.2 % ID/g

* * *

Kindly supply the reported uptake TUMOUR values for the records listed here.
# System: B16F0 melanoma tumour
# measurementDescription: Biodistribution in B16 melanoma bearing mice
# Format: in vivo, C57BL/6J mice
# measurementParameters: B16 melanoma bearing mice, 15 min
Answers are plain numbers, in % ID/g.

Example entries and their recorded answers appear below.
{"compound": "CCCCN(C)CCCCNC(=O)c1ccc(F)nc1 [[^18F]MEL4]", "readoutUnits": "% ID/g", "uptake TUMOUR": 4.01}
{"compound": "CCN(CC)CCNC(=O)c1ccnc(F)c1 [[^18F]MEL8]", "readoutUnits": "% ID/g", "uptake TUMOUR": 6.99}
{"compound": "CCN(CC)CCNC(=O)c1ccc(F)nc1 [[^18F]MEL2]", "readoutUnits": "% ID/g", "uptake TUMOUR": 6.970}

--- query ---
Query block: Look up uptake TUMOUR for this compound: CCN(CC)CCNC(=O)c1cccnc1F [[^18F]MEL6]
Result block: 10.6
